Reported melting point values for the following compounds.

Observe how each entry below is paired with its result.
Cc1nnc(-c2ccc3occ(-c4cccc(CO)c4)c3c2)o1 = 115 to 116 °C
CCCCCCCCCCC(=O)OC1CC(C)(C)N(CC#N)C(C)(C)C1 = 54 °C
CC(=O)OC1C(C)OC(Oc2nc[nH]c2C(N)=O)C(OC(C)=O)C1OC(C)=O (stereo unspecified) = 184 to 186 °C
CSc1c(O[C@H]2CC[C@H](NCc3ccccc3)CC2)ccc2[nH]ncc12 = 136 °C
O=C(Nc1ccncc1)c1n[nH]c2ccc(-c3cncc4ccccc34)cc12 = > 250 °C

Given Cn1cc(Oc2ccccc2)c(=O)c(-c2cccc(C(F)(F)F)c2)c1 , state its recorded melting point. 144 to 145 °C

Given Nc1cc(-n2c(=O)n(-c3ccccc3)c3ccccc32)ccn1 , state its recorded melting point. 184 to 185 °C

Given Cn1ncc2c1CC(C)(C)c1cnn(C)c1-2 , state its recorded melting point. 105 to 108 °C

Given Cc1ccc([N+](=O)[O-])c2[nH]cc(CO)c(=O)c12 , state its recorded melting point. 251 to 255 °C

Given COc1ccc2c(-c3ccc(OCCN4CCOCC4)cc3)c(Cc3ccc(Cl)cc3)oc2c1 , state its recorded melting point. 126 to 128 °C

###

Reported melting point values for the following molecules.

COC(=O)Nc1nc(C(=O)C(=O)OC)ns1 = 112 to 117 °C
Oc1cccc(CCCCn2ccnc2)c1 = 133 to 134 °C
Cc1cc(C#N)nc(Cl)n1 = 57 °C
COc1ccc2cc(N)cc3c2c1C(=O)N(O)C3=O = > 250 °C
Oc1ccc(-c2nc(-c3ccccc3)nc3ccccc23)c(O)c1 = 178 to 180 °C

Given Fc1ccc(C2=CCC(N3CCN(Cc4ccc5ccccc5n4)CC3)CC2)cc1 (stereo unspecified) , state its recorded melting point. 111 to 114 °C

###

Parameter measured: melting point

Observe how each entry below is paired with its result.
CC(C)c1ccc(CNc2ccc(S(=O)(=O)O)cc2)cc1 = > 275 °C
CC(C)C[C@@H]1NC(=O)O[C@H]1CCS(=O)(=O)CCc1ccccc1 = 100 to 101 °C
Cn1nnnc1CN1CCC[C@@H](OCc2cc(C(F)(F)F)cc(C(F)(F)F)c2)[C@H]1c1ccccc1 (relative stereo) = 75 to 77 °C
CN1C(=O)[C@H](NC(=O)CC2CCCCC2)N=C(c2ccccc2)c2ccccc21 = 144 to 146 °C

Given CC(C)c1cccc(C(C)C)c1NC(=O)CSCCCCCCCCCCCCN1CCN(c2ccccc2)CC1 , state its recorded melting point. 76.5 to 77.5 °C

###

Reported melting point values for the following molecules.

Observe how each entry below is paired with its result.
CC(=O)OC1CCC2(C)C(=CCC3C2CCC2(C)C(n4ncnn4)=CCC32)C1 (configuration not stated) = 155 to 156 °C
O=C1c2ccccc2C(O)(c2ccccc2)N1CC(c1ccccc1)c1ccccc1 (configuration not stated) = 230 °C
CCCNC(=O)C(C)=Cc1ccc2[nH]cc(Cc3ccc(C(=O)OC)cc3OC)c2c1 = 55 to 60 °C
CCCCc1c(Cc2ccc(-c3ccccc3-c3nnn[nH]3)cc2)c(C(=O)O)nn1CCCC = 108 °C
C=C(C)Cn1c(N)c(N)c(=O)n(C)c1=O = 152 to 153 °C
COc1ccnc(CS(=O)c2nc3c(C(F)(F)F)cccc3[nH]2)c1 (configuration not stated) = 150 to 151 °C
CN1C(=O)CN(C(=O)CCl)C(c2ccccc2)c2cc(Cl)ccc21 (configuration not stated) = 197 to 200 °C
CCCCCCNc1ccc(OC2CCN(C(=O)OC(C)(C)C)CC2)cc1 = 46 to 47 °C

Given CC(C)N[C@@H]1Cc2cccc(O)c2C[C@H]1O (relative stereo) , state its recorded melting point. 138 to 140 °C

Given O=S(=O)(c1ccc2c(Cl)cnc(Cl)c2c1)N1CCC[C@@H]1CO , state its recorded melting point. 168 °C

Given COC(=O)[C@H](CC(C)C)NC(=O)CCC(=O)Nc1ccc(Nc2ccccc2)cc1 , state its recorded melting point. 134 to 135 °C

Given O=c1[nH]c2ccc(S(=O)CCN3CCC(Cc4ccc(Cl)c(Cl)c4)CC3)cc2o1 (configuration not stated) , state its recorded melting point. 189 to 191 °C

Given CC(C)c1ncc(OCc2ccccc2)c(O)n1 , state its recorded melting point. 198 °C
